Where these numbers come from: ChEMBL document CHEMBL4513216

tested on: Plasmodium berghei; assay: Screen against P. berghei liver stage (PbLuc), transformed with Luciferase, at 10uM; assay type: functional, HepG2; details: tested at 10 uM
Among all 69,000 compounds or so, about 8,600 (12%) showed an effect of 50% or more. The list comes from a sample in which strong results are over-represented; it also holds close analogues and randomly drawn compounds.
Kindly apply the following: 1 (yes) if INHIBITION is less than 30%, 0 (no) in every other case.

As a guide, the following entries are already answered.
* N#Cc1ccc(N2CCCC3(CCC(=O)N3CC3CC3)CC2)nc1 (configuration not stated) | 0 (no)
* Cc1noc([C@@H]2C[C@H]3OCC[C@H]3N(Cc3ccoc3)C2)n1 | 1 (yes)
* Cc1noc(C)c1CN1CCOC2(CCCN(c3ncccn3)C2)C1 (configuration not stated) | 1 (yes)
* CCN(C)S(=O)(=O)N1CCCC(c2nc(-c3ccccc3)c[nH]2)C1 (configuration not stated) | 0 (no)
* Cc1noc([C@@H]2C[C@H]3OCC[C@H]3N(C(C)C)C2)n1 | 1 (yes)

Please state whether INHIBITION is below 30% for CCCC(=O)n1ccn(S(=O)(=O)c2ccc(C)cc2)c1=O
1 (yes)

Please state whether INHIBITION is below 30% for Cc1noc([C@H]2C[C@H]3OCC[C@H]3N(C3CCC3)C2)n1
0 (no)

---

test system: Plasmodium berghei; test: Screen against P. berghei liver stage (PbLuc), transformed with Luciferase, at 10uM; assay type: functional, HepG2; conditions: tested at 10 uM
Out of some 69,000 compounds screened, about 8,600 (12%) showed an effect of 50% or more. The sample holds strong results, similar compounds and a random draw of the others, so the mix is not that of the screen.
I would appreciate it if you labelled entries 1 when INHIBITION is 40% or higher, otherwise -1.

• CCc1nc(C2CCCN(C(=O)c3cc(C(C)C)[nH]n3)C2)no1 (stereo not given) = -1
• O=C(NCCCO)c1cnc(-c2ccccc2)nc1O = 1
• Cc1ccc2c(c1)Oc1ncccc1C(=O)N2 = 1

Would you kindly look at the next entry?
Test whether the molecule COc1ccc(N2CCN(C(=O)C3[C@H]4CNC[C@@H]34)CC2(C)C)cc1 (stereo not given in full) records INHIBITION of 40% or higher.
-1

---

test system: Plasmodium berghei; assay: Screen against P. berghei liver stage (PbLuc), transformed with Luciferase, at 10uM; type: functional, HepG2; details: tested at 10 uM
About 8,600 (12%) of roughly 69,000 compounds showed an effect of 50% or more. This is one part of a sample in which strong results are shown more often than they occur.
Assign Satisfied whenever INHIBITION does not fall below 10%; assign Not satisfied whenever it does.

- Cc1nc2ccccc2n1Cc1cc(C(=O)NC2CCOC2)no1 (stereo not drawn): Satisfied
- CCC(C)(N)c1nc(=O)c(C(C)C)c(C)[nH]1 (stereo not drawn): Satisfied
- CNc1ccc(Cl)cc1C(=O)N1CCC(Cn2cc(CN)nn2)CC1: Satisfied

Exam item: decide whether the reported INHIBITION for O=C(c1ccncc1)N(CCO)Cc1cc(Br)ccc1F is at least 10%.
Satisfied

For this compound, is measured INHIBITION 10% or higher? Cc1nc(C2CCN2c2ncccn2)cc(N(C)C)n1 (stereo not drawn)
Satisfied

Hi team, for Cn1c2c(c(=O)n1C)CN(C(=O)c1ccncc1F)CCC2 , is the recorded INHIBITION at or above 10%?
Satisfied

Record CCC(CO)NCc1ccc(-c2ccc(Br)cc2)o1 (stereo not drawn) ; criterion: INHIBITION no lower than 10%. Met?
Not satisfied

Kindly determine if INHIBITION recorded for COCC1CN(Cc2ccoc2)Cc2nnn(C)c21 (stereo not drawn) is above or exactly 10%.
Not satisfied

Is it the case that Cc1ncncc1C(=O)NCCN1CCC(C)CC1 has INHIBITION reaching or exceeding 10%?
Not satisfied

Confirm if INHIBITION reported for the compound CCC(CO)NCc1ccc(-c2ccccc2F)o1 (stereo not drawn) is 10% or above.
Satisfied

Exam item: decide whether the reported INHIBITION for Cc1cccnc1CN1CCN(C(=O)c2ccn(C(C)(C)C)c2)CC1 is at least 10%.
Satisfied

Dear colleague, could you confirm whether Cc1nc2cc(=O)[nH]n2c(C)c1CC(=O)Nc1cnn(C)c1 has INHIBITION at or above 10%?
Satisfied

Quick check, INHIBITION >= 10%? CC(C)CN1C[C@@H](C(=O)O)C[C@@H](C(=O)NCc2ccncc2)C1
Not satisfied

---

tested on: Plasmodium berghei; test: Screen against P. berghei liver stage (PbLuc), transformed with Luciferase, at 10uM; type: functional, HepG2; conditions: tested at 10 uM
Among all 69,000 compounds or so, about 8,600 (12%) showed an effect of 50% or more. This is one part of a sample in which strong results are shown more often than they occur.
Range-based classes on measured INHIBITION: low interval (below -20%), middle interval (-20% to below 50%), high interval (50% or more)

Please review the following examples before continuing.
- CCc1ncc2c(n1)CN(Cc1nc3c(F)cccc3[nH]1)CC2: high interval
- CCc1nnc2n1CCN(Cc1nc3c(F)cccc3[nH]1)C2: high interval
- Cc1n[nH]c(C2CN(C(=O)CCc3ccco3)CCO2)n1 (centres undefined): low interval

Next:
# classify by INHIBITION band: Cc1ccc(C(=O)O)cc1-c1cccc2c1CCNC2
middle interval

---

system: Plasmodium berghei; test: Screen against P. berghei liver stage (PbLuc), transformed with Luciferase, at 10uM; type: functional, HepG2; conditions: tested at 10 uM
About 8,600 (12%) of roughly 69,000 compounds showed an effect of 50% or more. For the sample, strong results were picked, then their nearest neighbours and some compounds at random.
reported-metric: INHIBITION (%)
Give the number; % is assumed, so skip it.

• COCCN1CCN(Cc2cnc(C)nc2)CC1 = -9.32
• O=C(C1CCC2(CCN(Cc3cccnc3)CC2)CO1)N1CCCC1 (stereo not drawn) = 62
• Cc1nc(C)c(C(=O)N2CCCC2(C)C(=O)NC2CCCC2)o1 (stereo not drawn) = 46.2

Okay, next one:
Suppose we examine the compound CC(C)NC(=O)C1CCC2(CCN(c3ncccn3)CC2)CO1 (stereo not drawn) ; what INHIBITION value has been reported?
15.7

---

system: Plasmodium berghei; experiment: Screen against P. berghei liver stage (PbLuc), transformed with Luciferase, at 10uM; type: functional, HepG2; conditions: tested at 10 uM
In all, about 69,000 compounds went through this assay and about 8,600 (12%) showed an effect of 50% or more. This is one part of a sample in which strong results are shown more often than they occur.
This section presents molecules with their documented INHIBITION values.
Form entry: value (%) — number only.

Some molecules with recorded INHIBITION:
- CC1CCN(C(=O)c2occc2COc2cccc(C#N)c2)CC1: -122
- Cc1cc(C)nc(N2CCC(C(=O)O)(n3ccc(C(C)(C)C)n3)CC2)n1: 25.4

Then there is this molecule:
What value of INHIBITION has been reported for the following molecule? CNS(=O)(=O)c1ccc(CNC(=O)Nc2cc(C)on2)s1
24.3

---

Each entry below lists one item and its recorded INHIBITION value.
tested on: Plasmodium berghei; assay: Screen against P. berghei liver stage (PbLuc), transformed with Luciferase, at 10uM; format: functional, HepG2; conditions: tested at 10 uM
About 8,600 (12%) of roughly 69,000 compounds showed an effect of 50% or more. What follows is part of a selection rich in strong results, with near analogues and random picks from the rest.
Field format: number, assumed %, no unit text.

Example cases with answers are listed next.
• COC(=O)c1ccccc1NS(=O)(=O)c1c(C)nn(C)c1C = -7.93
• Cc1cccc(CN2C[C@@H]3COC[C@]3(CNC(=O)N3CCCC3)C2)n1 = 21
• Cc1ccccc1-n1cc(CNC(=O)CC2C(=O)NCCN2C)cn1 (configuration not stated) = 4.68
• CC(=O)N1CCCC(C(=O)N2CCN(c3cnn(C)c(=O)c3)CC2)C1 (configuration not stated) = 16.6
• CCS(=O)(=O)Nc1cnn(Cc2cccc(C)c2)c1 = -2.64
• Cc1csc([C@@H]2C[C@@H]3CCN(Cc4cnn(C)c4)C[C@H]3O2)n1 = -3.19
• Cc1ccc(-n2cc(S(=O)(=O)Nc3cccc(C(=O)O)c3C)cn2)cc1 = 68
• Cc1csc(CN2C[C@@H]3CN(C)CCO[C@@H]3C2)n1 = 57.5

Need INHIBITION of Cc1cc(CN2C[C@@H]3COC[C@]3(CNC(=O)N(C)C)C2)no1 , thanks.
45.1

Using the record for Cn1cccc1C(=O)N1C[C@@H](OCc2ccncc2)[C@@H]2OCCC[C@@H]21 , report its INHIBITION.
42.5

Please give the measured INHIBITION for this molecule: Cc1cc(CN2C[C@@H]3COC[C@]3(CNC(=O)N3CCCC3)C2)no1
70.7

Dear colleague, I am looking for the recorded INHIBITION of the following molecule: Cc1ccc(NS(=O)(=O)c2cnn(Cc3ccccc3)c2)c(C(=O)O)c1
51.6
